- tested on: recombinant human full-length HSD17B13 protein (Homo sapiens)
- Construct: recombinant human full-length HSD17B13 protein; 6xHis (C)
- test method notes: HSD17B13 96 luminescence inhibition assay (NAD(P)H-Glo)
# IC50 values compiled below

Worked examples follow.
{"columns": ["molecule", "measured value"],
 "data": [
  ["O=C(NCc1cccc(O)c1)c1ccc2cc(F)c(O)cc2n1", "1 to 5 µM"],
  ["O=C1S/C(=C\\c2c(F)ccc(O)c2F)C(=O)N1Cc1cccc(O)c1", "> 5 µM"],
  ["O=C(c1ccc(-c2ccc(F)c(O)c2F)s1)c1c(F)cc(F)c(O)c1F", "1 to 5 µM"],
  ["O=C1S/C(=C\\c2ccc(F)c(O)c2)C(=O)N1Cc1cc(O)cc(F)c1", "1 to 5 µM"],
  ["CS(=O)(=O)c1cccc(CN2C(=O)S/C(=C\\c3c(F)cc(F)c(O)c3F)C2=O)c1", "≤ 1 µM"],
  ["CS(=O)(=O)Nc1cccc(CN2C(=O)S/C(=C\\c3ccc(F)c(O)c3)C2=O)c1", "> 5 µM"],
  ["O=C1S/C(=C\\c2ccc(F)c(O)c2F)C(=O)N1Cc1cccc(O)c1", "1 to 5 µM"],
  ["O=C1S/C(=C\\c2c(F)cc(F)c(O)c2F)C(=O)N1Cc1cc[nH]c(=O)c1", "1 to 5 µM"]
]}

## Task Given the molecule "O=C1S/C(=C\c2ccc(F)c(O)c2)C(=O)N1Cc1cccc(C(F)(F)F)c1" , what is its reported IC50?
## Result 1 to 5 µM

## Task Given the molecule "NC(=O)c1cccc(CN2C(=O)S/C(=C\c3ccc(F)c(O)c3)C2=O)c1" , what is its reported IC50?
## Result 1 to 5 µM

## Task Given the molecule "O=C(NCc1cccc(O)c1)c1cc2cc(O)c(F)cc2cn1" , what is its reported IC50?
## Result > 5 µM

## Task Given the molecule "O=C(c1ccc(-c2ccc(F)c(O)c2F)s1)c1cc(F)c(F)c(O)c1F" , what is its reported IC50?
## Result 1 to 5 µM

## Task Given the molecule CS(=O)(=O)N1CCC(CN2C(=O)S/C(=C\c3c(F)cc(F)c(O)c3F)C2=O)C1 (centres unmarked) , what is its reported IC50?
## Result > 5 µM

---

- tested on: recombinant human full-length HSD17B13 protein (Homo sapiens, UniProt Q7Z5P4)
- Construct: recombinant human full-length HSD17B13 protein; 6xHis (C)
- Sequence (Q7Z5P4 20-300): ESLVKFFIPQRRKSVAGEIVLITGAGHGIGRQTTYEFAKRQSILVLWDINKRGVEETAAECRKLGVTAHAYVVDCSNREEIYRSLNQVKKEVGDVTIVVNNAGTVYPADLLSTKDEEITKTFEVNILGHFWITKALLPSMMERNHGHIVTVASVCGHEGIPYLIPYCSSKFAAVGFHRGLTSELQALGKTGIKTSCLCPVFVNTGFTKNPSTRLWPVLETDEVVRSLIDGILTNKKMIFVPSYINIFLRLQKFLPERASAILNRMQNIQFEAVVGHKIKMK
- test method notes: HSD17B13 96 luminescence inhibition assay (NAD(P)H-Glo)
pIC50: −log10 of the molar value.
attribute measured: pIC50

{"columns": ["molecule smiles", "tested on", "measured value"],
 "data": [
  ["O=C1S/C(=C\\c2c(F)cc(F)c(O)c2F)C(=O)N1Cc1ccc(=O)[nH]c1", "recombinant human full-length HSD17B13 protein (Homo sapiens, UniProt Q7Z5P4)", "≥ 6.00"],
  ["O=C1O/C(=C\\c2ccc(F)c(O)c2)C(=O)N1Cc1cccc(O)c1", "recombinant human full-length HSD17B13 protein (Homo sapiens, UniProt Q7Z5P4)", "< 5.30"],
  ["O=C1S/C(=C\\c2ccc(F)c(O)c2)C(=O)N1Cc1cc(O)ccc1F", "recombinant human full-length HSD17B13 protein (Homo sapiens, UniProt Q7Z5P4)", "5.30 to 6.00"]
]}

## Task Given the compound "CS(=O)(=O)c1cccc(CN2C(=O)S/C(=C\c3ccc(F)c(O)c3)C2=O)c1" , what is its reported pIC50?
## Result 5.30 to 6.00

## Task Given the compound "NS(=O)(=O)c1cccc(CN2C(=O)S/C(=C\c3ccc(F)c(O)c3)C2=O)c1" , what is its reported pIC50?
## Result ≥ 6.00

## Task Given the compound "O=C(c1cc(O)c(F)c(F)c1)c1ccc(-c2ccc(F)c(O)c2F)s1" , what is its reported pIC50?
## Result 5.30 to 6.00

## Task Given the compound "O=C1S/C(=C\c2cc(F)c(F)c(O)c2F)C(=O)N1Cc1cccc(O)c1" , what is its reported pIC50?
## Result 5.30 to 6.00
